Listed below: TGI values for each entry.
- Tested on: COLO 205 colon
- procedure-text: NCI tumour cell line growth inhibition, 48 h
property-measured: TGI (µM)

[
  {
    "compound": "CN(C)CCCOc1ccc(/C=C2/CCC/C(=C/c3ccc(OCCCN(C)C)cc3)C2=O)cc1",
    "target-under-test": "COLO 205 colon",
    "property-measured": "TGI",
    "unit-name": "µM",
    "qualifier-symbol": "=",
    "recorded-measurement": 3.2
  },
  {
    "compound": "O=[N+]([O-])c1cnc(N(CCO)CCO)s1",
    "target-under-test": "COLO 205 colon",
    "property-measured": "TGI",
    "unit-name": "µM",
    "qualifier-symbol": ">",
    "recorded-measurement": 100
  },
  {
    "compound": "CN(CC(=O)O)CC(=O)O",
    "target-under-test": "COLO 205 colon",
    "property-measured": "TGI",
    "unit-name": "µM",
    "qualifier-symbol": ">",
    "recorded-measurement": 100
  },
  {
    "compound": "COC(=O)C(=NNc1ccccc1[N+](=O)[O-])C(=O)OC",
    "target-under-test": "COLO 205 colon",
    "property-measured": "TGI",
    "unit-name": "µM",
    "qualifier-symbol": ">",
    "recorded-measurement": 100
  },
  {
    "compound": "OCC(O)C(O)C(O)C(O)CNCCO/N=C1/C(c2c(O)[nH]c3ccccc23)=Nc2ccccc21 (stereo unspecified)",
    "target-under-test": "COLO 205 colon",
    "property-measured": "TGI",
    "unit-name": "µM",
    "qualifier-symbol": "=",
    "recorded-measurement": 40.6
  },
  {
    "compound": "O=C(/C=C/c1ccco1)Nc1ncc(Cc2cccc(C(F)(F)F)c2)s1",
    "target-under-test": "COLO 205 colon",
    "property-measured": "TGI",
    "unit-name": "µM",
    "qualifier-symbol": "=",
    "recorded-measurement": 0.166
  }
]
